Give measured cell viability for each item. Keep answers brief.
tested on: NOMO1; test: cell viability relative to DMSO control; higher = less cytotoxic; settings: RPMI 5 mM glucose + 10% dialyzed FBS; 48 h; 0.00234 µM
Your answer is read as %, so omit the unit and give the number.

Enquiry: Hello, please tell me recorded cell viability for this one: `COc1cc(OC2CCN(C)CC2)ccc1Nc1ncc2c(n1)n(C1CCCC1)c(=O)n2C`
Return: 88.9

Enquiry: Hello, please tell me recorded cell viability for this one: `N#CCNC(=O)c1ccc(-c2ccnc(Nc3ccc(N4CCOCC4)cc3)n2)cc1`
Return: 105

Enquiry: Hello, please tell me recorded cell viability for this one: CNCC(O)c1ccc(O)cc1 (configuration not stated)
Return: 122

Enquiry: Hello, please tell me recorded cell viability for this one: CC(C)C1NC(=O)C(NC(=O)C2=C3\N=C\4/C(=C(C)\C(=O)\C(=C4C(=O)NC5C(C)OC(=O)C(C(C)C)N(C)C(=O)CN(C)C(=O)C6CCCN6C(=O)C(NC5=O)C(C)C)N)OC3=C(C)C=C2)C(C)OC(=O)C(C(C)C)N(C)C(=O)CN(C)C(=O)C7CCCN7C1=O (configuration not stated)
Return: 8.79

Enquiry: Hello, please tell me recorded cell viability for this one: `C[C@@]12C(=O)OC(=O)[C@@]1(C)C1CCC2O1`
Return: 96.1

Enquiry: Hello, please tell me recorded cell viability for this one: `CC(C)(C)OC(=O)N[C@H]1CCCCC/C=C\[C@@H]2C[C@@]2(C(=O)N[S+](=O)([O-])C2CC2)NC(=O)[C@@H]2C[C@@H](OC(=O)N3Cc4cccc(F)c4C3)CN2C1=O`
Return: 92.7

Enquiry: Hello, please tell me recorded cell viability for this one: `C[N]1C=C(C=N1)C2=C3\C=N/NC(=O)C4=C3C(=CC(=C4)NC(=O)[C@H](N)C5CCCCC5)[NH]2`
Return: 90.4
